Recorded values, source patent US9828338B2.

# System Name: r-NAAA (Rattus norvegicus, UniProt Q5KTC7)
# Sequence (Q5KTC7 34-362): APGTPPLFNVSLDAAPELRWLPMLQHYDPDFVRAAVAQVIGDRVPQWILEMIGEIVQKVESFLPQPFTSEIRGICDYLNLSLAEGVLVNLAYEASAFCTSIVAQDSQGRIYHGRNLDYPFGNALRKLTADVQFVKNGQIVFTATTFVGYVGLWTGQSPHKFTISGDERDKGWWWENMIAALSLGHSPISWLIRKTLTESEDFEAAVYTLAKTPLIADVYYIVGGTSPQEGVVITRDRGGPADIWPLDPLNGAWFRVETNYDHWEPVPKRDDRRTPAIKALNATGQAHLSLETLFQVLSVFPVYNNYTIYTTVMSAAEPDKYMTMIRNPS
pIC50: −log10 of the molar value.
Below, each of the compounds is paired with its reported pIC50 value.

Compound: CCCCCCCCOC(=O)N[C@H]1CNC1=O
System Name: r-NAAA (Rattus norvegicus, UniProt Q5KTC7)
pIC50: 7.80
//
Compound: C[C@@H]1NC(=O)[C@H]1NC(=O)OCc1ccc(C2CCCCC2)cc1
System Name: r-NAAA (Rattus norvegicus, UniProt Q5KTC7)
pIC50: 7.34
//
Compound: C[C@H]1NC(=O)[C@@H]1NC(=O)OCc1ccc(C2CCCCC2)cc1
System Name: r-NAAA (Rattus norvegicus, UniProt Q5KTC7)
pIC50: 5.29
//
Compound: O=C(N[C@H]1CNC1=O)OCc1ccc(C23CC4CC(CC(C4)C2)C3)cc1
System Name: r-NAAA (Rattus norvegicus, UniProt Q5KTC7)
pIC50: 5.57
//
Compound: O=C(N[C@H]1CNC1=O)OCCCC1CCCC1
System Name: r-NAAA (Rattus norvegicus, UniProt Q5KTC7)
pIC50: 6.66
//
Compound: O=C(N[C@H]1CNC1=O)OCCCCC1CCCC1
System Name: r-NAAA (Rattus norvegicus, UniProt Q5KTC7)
pIC50: 7.32
//
Compound: Cc1cccc(-c2ccc(COC(=O)N[C@H]3CNC3=O)cc2C)c1
System Name: r-NAAA (Rattus norvegicus, UniProt Q5KTC7)
pIC50: 6.21
//
Compound: CC(CCCCc1ccccc1)OC(=O)N[C@H]1CNC1=O (mixture of isomers)
System Name: r-NAAA (Rattus norvegicus, UniProt Q5KTC7)
pIC50: 5.41
//
Compound: O=C(N[C@H]1CNC1=O)OCc1ccc(OC2CCCCC2)cc1
System Name: r-NAAA (Rattus norvegicus, UniProt Q5KTC7)
pIC50: 6.80
//
Compound: C[C@@H]1NC(=O)[C@H]1NC(=O)OCc1ccc(-c2ccccc2)cc1
System Name: r-NAAA (Rattus norvegicus, UniProt Q5KTC7)
pIC50: 6.05
//
Compound: CCCCC1CCC(OC(=O)N[C@H]2CNC2=O)CC1 (mixture of isomers)
System Name: r-NAAA (Rattus norvegicus, UniProt Q5KTC7)
pIC50: 6.15
//
Compound: C[C@@H]1NC(=O)[C@H]1NC(=O)OCCCCCc1ccccc1
System Name: r-NAAA (Rattus norvegicus, UniProt Q5KTC7)
pIC50: 5.55
//
Compound: C[C@H]1NC(=O)[C@H]1NC(=O)OCCCCC1CCCCC1
System Name: r-NAAA (Rattus norvegicus, UniProt Q5KTC7)
pIC50: 4.06
//
Compound: O=C(N[C@H]1CNC1=O)OCC/C=C\c1ccccc1
System Name: r-NAAA (Rattus norvegicus, UniProt Q5KTC7)
pIC50: 5.80
//
Compound: O=C(N[C@H]1CNC1=O)Oc1ccc(Cc2ccccc2)cc1
System Name: r-NAAA (Rattus norvegicus, UniProt Q5KTC7)
pIC50: 4.68
